Listed compounds paired with reported λmax
# TEST_NAME: UV-vis spectra
# Format: physicochemical
# MEASUREMENT_SETUP: ethanol as solvent
EXPERIMENTAL_ENDPOINT: λmax

>  <COMPOUND>
O=C(NCC(O)CNc1ccc([N+](=O)[O-])cc1)C(Cl)Cl (centres unmarked)

>  <VALUE_MEASURED>
382 nm

$$$$
>  <COMPOUND>
O=[N+]([O-])c1ccc(CC(O)CNc2ccccc2)cc1 (centres unmarked)

>  <VALUE_MEASURED>
248 nm

$$$$
>  <COMPOUND>
O=[N+]([O-])c1cccc(NCC(O)Cc2ccccc2)c1 (centres unmarked)

>  <VALUE_MEASURED>
400 nm

$$$$
>  <COMPOUND>
O=[N+]([O-])c1ccc(NCC(O)Cc2ccccc2)cc1 (centres unmarked)

>  <VALUE_MEASURED>
384 nm

$$$$
>  <COMPOUND>
O=[N+]([O-])c1cccc(CC(O)CNc2ccccc2)c1 (centres unmarked)

>  <VALUE_MEASURED>
248 nm

$$$$

----------
# TEST_NAME: UV-vis spectra
# Format: physicochemical
# MEASUREMENT_SETUP: ethanol as solvent
Entries annotated with measured E

>  <COMPOUND>
O=[N+]([O-])c1cccc(NCC(O)Cc2ccccc2)c1 (centres unmarked)

>  <E / M⁻¹ cm⁻¹>
1331.3

$$$$
>  <COMPOUND>
O=[N+]([O-])c1cccc(CC(O)CNc2ccccc2)c1 (centres unmarked)

>  <E / M⁻¹ cm⁻¹>
17018.7

$$$$
>  <COMPOUND>
O=C(NCC(O)CNc1ccc([N+](=O)[O-])cc1)C(Cl)Cl (centres unmarked)

>  <E / M⁻¹ cm⁻¹>
17263.9

$$$$
>  <COMPOUND>
O=[N+]([O-])c1ccc(CC(O)CNc2ccccc2)cc1 (centres unmarked)

>  <E / M⁻¹ cm⁻¹>
15066.6

$$$$
>  <COMPOUND>
O=[N+]([O-])c1ccc(NCC(O)Cc2ccccc2)cc1 (centres unmarked)

>  <E / M⁻¹ cm⁻¹>
1740.0

$$$$

Just for reference, patent US20240217917A1 is where these values come from.
